Tested on: Pseudomonas aeruginosa
Method summary: Antimicrobial activity against Pseudomonas aeruginosa 5H6 tracheal isolates from mechanically ventilated chronic respiratory insufficiency patient
Assay type: functional, organism-based
Condition summary: Trachea
The source made the active and inactive calls. The calls are words filed in the database; no cut-off is given here.
Reported metric: Activity

Sample records with Activity:
**Q:** Bench note: what Activity did NCC[C@H](O)C(=O)N[C@@H]1C[C@H](N)[C@@H](O[C@H]2O[C@H](CN)[C@@H](O)[C@H](O)[C@H]2O)[C@H](O)[C@H]1O[C@H]1O[C@H](CO)[C@@H](O)[C@H](N)[C@H]1O show?
**A:** Active

**Q:** What do you have for CO/N=C(\C(=O)N[C@@H]1C(=O)N2C(C(=O)[O-])=C(C[N+]3(C)CCCC3)CS[C@H]12)c1csc(N)n1 ?
**A:** Active

**Q:** Query O=C(O)c1cn(C2CC2)c2cc(N3CCNCC3)c(F)cc2c1=O next
**A:** Active

**Q:** Further, for CCn1cc(C(=O)O)c(=O)c2cc(F)c(N3CCNCC3)cc21 ?
**A:** Active

**Q:** One more compound: CC(C)(O/N=C(\C(=O)N[C@@H]1C(=O)N2C(C(=O)[O-])=C(C[n+]3ccccc3)CS[C@H]12)c1csc(N)n1)C(=O)O
**A:** Active

Let us move to another entry and its Activity.
**Q:** Quick check: Activity of C[C@@H](O)[C@H]1C(=O)N2C(C(=O)O)=C(SCCNC=N)C[C@H]12 ?
**A:** Active

###

Test system: Pseudomonas aeruginosa
Method summary: Antimicrobial activity against Pseudomonas aeruginosa 2A3 tracheal isolates from mechanically ventilated tuberculosis patient
Assay type: functional, organism-based
Condition summary: Trachea
Active and inactive are the calls of the source. The calls are words filed in the database; no cut-off is given here.
Just give me one of these, please: active, inactive

**Q:** Short answer needed: outcome of this test for C[C@H]1[C@H](NC(=O)/C(=N\OC(C)(C)C(=O)O)c2csc(N)n2)C(=O)N1S(=O)(=O)O ?
**A:** active

**Q:** Same for CC(C)(O/N=C(\C(=O)N[C@@H]1C(=O)N2C(C(=O)[O-])=C(C[n+]3ccccc3)CS[C@H]12)c1csc(N)n1)C(=O)O
**A:** active

**Q:** And then CCN[C@@H]1C[C@H](N)[C@@H](O[C@H]2OC(CN)=CC[C@H]2N)[C@H](O)[C@H]1O[C@H]1OC[C@](C)(O)[C@H](NC)[C@H]1O , what is it?
**A:** active

**Q:** One more compound: C[C@@H](O)[C@H]1C(=O)N2C(C(=O)O)=C(SCCNC=N)C[C@H]12
**A:** inactive

**Q:** Could you do the same for NC[C@H]1O[C@H](O[C@H]2[C@H](O)[C@@H](O[C@H]3O[C@H](CO)[C@@H](O)[C@H](N)[C@H]3O)[C@H](N)C[C@@H]2N)[C@H](N)C[C@@H]1O , please?
**A:** active

Next:
**Q:** Look up the recorded call for NCC[C@H](O)C(=O)N[C@@H]1C[C@H](N)[C@@H](O[C@H]2O[C@H](CN)[C@@H](O)[C@H](O)[C@H]2O)[C@H](O)[C@H]1O[C@H]1O[C@H](CO)[C@@H](O)[C@H](N)[C@H]1O in this test.
**A:** active

**Q:** Now consider C[C@@H](O)[C@H]1C(=O)N2C(C(=O)O)=C(S[C@@H]3CN[C@H](C(=O)N(C)C)C3)[C@H](C)[C@H]12 and answer again.
**A:** active
